organism: Rattus norvegicus; assay: Open TG-GATES - Regimen: Daily Repeat; format: toxicity, organism-based, Sprague-Dawley; design: regimen Daily Repeat, gender Male, age 6 weeks; conditions: in vivo, po, 1000 mg/kg, […], tissue Blood, route gavage, dose level High, time 14 day
The entries below are paired with their reported RBC.
Form entry: value (x10_4/ul) — number only.

1. O=C(O)c1cccnc1 [NIACIN]
684.2
2. CC(C)(S)[C@@H](N)C(=O)O [PENICILLAMINE]
701
3. O=C(N[C@H](CO)[C@H](O)c1ccc([N+](=O)[O-])cc1)C(Cl)Cl [CHLORAMPHENICOL]
675.6

Here is the next item to consider.
Item: CCN1CCCC1CNC(=O)c1cc(S(N)(=O)=O)ccc1OC (centres undefined) [SULPIRIDE] | RBC: 742

====

species: Rattus norvegicus; assay: Open TG-GATES - Regimen: Daily Repeat; assay type: toxicity, organism-based, Sprague-Dawley; parameters: regimen Daily Repeat, gender Male, age 6 weeks; settings: in vivo, po, 300 mg/kg, […], tissue Plasma, route gavage, dose level Middle, time 14 day
Measurement name: TBIL (mg/dL)
Please reply with the bare figure in mg/dL and do not write the unit itself.

The examples below pair each entry with its known result.
1. CCN1CCCC1CNC(=O)c1cc(S(N)(=O)=O)ccc1OC (centres undefined) [SULPIRIDE]
0.052
2. CC(C)(S)[C@@H](N)C(=O)O [PENICILLAMINE]
0.04

So, O=C(N[C@H](CO)[C@H](O)c1ccc([N+](=O)[O-])cc1)C(Cl)Cl [CHLORAMPHENICOL] ? Its TBIL was 0.052

Form field TBIL, entry O=C(O)c1cccnc1 [NIACIN] : 0.006

====

species on record: Rattus norvegicus; assay: Open TG-GATES - Regimen: Single; type: toxicity, organism-based, Sprague-Dawley; parameters: regimen Single, gender Male, age 6 weeks; details: in vivo, po, 0 mg/kg, 3 h, tissue Blood, route gavage, dose level Control
The following molecules are shown together with reported Hb values.
Numeric answer only, unit g/dL assumed.

Before answering, review these 4 worked examples.
1) CCc1oc2ccccc2c1C(=O)c1cc(I)c(O)c(I)c1 [BENZIODARONE]
13.7
2) CC(=O)Oc1cc(C(C)C)c(OCCN(C)C)cc1C [MOXISYLYTE]
13
3) CC(=N)S [THIOACETAMIDE]
13.3
4) C[C@]12CCC(=O)C=C1CC[C@@H]1[C@@H]2CC[C@@]2(C)[C@H]1CC[C@]2(C)O [METHYLTESTOSTERONE]
13.3

Data point: CC(C)C(=O)Nc1ccc([N+](=O)[O-])c(C(F)(F)F)c1 [FLUTAMIDE] ; Hb = 13.4

molecule CCC(C)(C)C(=O)O[C@H]1C[C@@H](C)C=C2C=C[C@H](C)[C@H](CC[C@@H]3C[C@@H](O)CC(=O)O3)[C@H]21 [SIMVASTATIN] , Hb observed: 12.9

Entry under test: O=C(N[C@H](CO)[C@H](O)c1ccc([N+](=O)[O-])cc1)C(Cl)Cl [CHLORAMPHENICOL] . Its Hb was 13.2

Input CC(C)(S)[C@@H](N)C(=O)O [PENICILLAMINE] . Output Hb: 13.8

Summary for this molecule, CN1C(=O)OC(C)(C)C1=O [TRIMETHADIONE] : Hb is 13.4

Recorded result, "Nc1nc(N)c2nc(-c3ccccc3)c(N)nc2n1" , Hb: 13.9

Input CCN1CCCC1CNC(=O)c1cc(S(N)(=O)=O)ccc1OC (stereo unspecified) [SULPIRIDE] . Output Hb: 13.4

Measured Hb, C#C[C@]1(O)CC[C@H]2[C@@H]3CCc4cc(O)ccc4[C@H]3CC[C@@]21C [ETHINYL ESTRADIOL] : 13.2

Recorded result, CCSCC[C@H](N)C(=O)O [ETHIONINE] , Hb: 13.4

For record O=C(O)c1cccnc1 [NIACIN] the listed Hb is 13.5

The reported Hb of the molecule Oc1ncnc2[nH]ncc12 [ALLOPURINOL] was 14

For C[C@](N)(Cc1ccc(O)c(O)c1)C(=O)O [METHYLDOPA] the molecule record lists Hb as 13.1

====

species: Rattus norvegicus; assay: Open TG-GATES - Regimen: Daily Repeat; format: toxicity, organism-based, Sprague-Dawley; design: regimen Daily Repeat, gender Male, age 6 weeks; settings: in vivo, po, 1000 mg/kg, […], tissue Plasma, route gavage, dose level High, time 14 day
Measurement name: Na

1) CC(C)(S)[C@@H](N)C(=O)O
142.8 meq/L

response.value for "O=C(N[C@H](CO)[C@H](O)c1ccc([N+](=O)[O-])cc1)C(Cl)Cl" (field: Na) = 144 meq/L

The compound listed as CCN1CCCC1CNC(=O)c1cc(S(N)(=O)=O)ccc1OC (centres undefined) [SULPIRIDE] shows Na equal to 140.6 meq/L

get_value(item= "O=C(O)c1cccnc1" , readout=Na) returns 138.8 meq/L

====

species: Rattus norvegicus; experiment: Open TG-GATES - Regimen: Single; assay type: toxicity, organism-based, Sprague-Dawley; parameters: regimen Single, gender Male, age 6 weeks; conditions: in vivo, po, 0 mg/kg, 9 h, tissue Liver, route gavage, dose level Control
LIVER reference
Kindly provide the numeric value in g only, without the unit symbol.

# example entries with known answers
1. C#C[C@]1(O)CC[C@H]2[C@@H]3CCc4cc(O)ccc4[C@H]3CC[C@@]21C
7
2. CCC(C)(C)C(=O)O[C@H]1C[C@@H](C)C=C2C=C[C@H](C)[C@H](CC[C@@H]3C[C@@H](O)CC(=O)O3)[C@H]21
8.4

# LIVER of "CC(=O)Oc1cc(C(C)C)c(OCCN(C)C)cc1C" = 8.9

Form field LIVER, entry CCN1CCCC1CNC(=O)c1cc(S(N)(=O)=O)ccc1OC (stereo not given) [SULPIRIDE] : 8.1

get_value(item= "C[C@]12CCC(=O)C=C1CC[C@@H]1[C@@H]2CC[C@@]2(C)[C@H]1CC[C@]2(C)O" , readout=LIVER) returns 7.9

Value of LIVER reported for the compound CC(C)C(=O)Nc1ccc([N+](=O)[O-])c(C(F)(F)F)c1 [FLUTAMIDE] is 8.3

Memo: "CCSCC[C@H](N)C(=O)O" , reported LIVER: 9.1

Input "O=C(N[C@H](CO)[C@H](O)c1ccc([N+](=O)[O-])cc1)C(Cl)Cl" . Output LIVER: 8.8

The compound identified as "C[C@](N)(Cc1ccc(O)c(O)c1)C(=O)O" registered its LIVER at 6.9

So, "CC(C)(S)[C@@H](N)C(=O)O" ? Its LIVER was 8.1

So, "Nc1nc(N)c2nc(-c3ccccc3)c(N)nc2n1" ? Its LIVER was 8.5

// LIVER value for "CCc1oc2ccccc2c1C(=O)c1cc(I)c(O)c(I)c1" : 8.7

Sample "Oc1ncnc2[nH]ncc12" ; LIVER observed: 9

The compound listed as "CN1C(=O)OC(C)(C)C1=O" shows LIVER equal to 7.9

Sample CC(=N)S [THIOACETAMIDE] ; LIVER observed: 8

====

species: Rattus norvegicus; test: Open TG-GATES - Regimen: Single; format: toxicity, organism-based, Sprague-Dawley; parameters: regimen Single, gender Male, age 6 weeks; conditions: in vivo, po, 0 mg/kg, 9 h, tissue Blood, route gavage, dose level Control
Measurement name: Plat (x10_4/uL)
API: value field is a number in x10_4/uL; no unit string.

The following compounds have reported results that may help.
1) CN1C(=O)OC(C)(C)C1=O
114.8
2) CCc1oc2ccccc2c1C(=O)c1cc(I)c(O)c(I)c1
113.9
3) Nc1nc(N)c2nc(-c3ccccc3)c(N)nc2n1
119.1
4) CCC(C)(C)C(=O)O[C@H]1C[C@@H](C)C=C2C=C[C@H](C)[C@H](CC[C@@H]3C[C@@H](O)CC(=O)O3)[C@H]21
114.5
5) CC(C)(S)[C@@H](N)C(=O)O
126.8

Then this compound:
Entry under test: CC(=N)S [THIOACETAMIDE] . Its Plat was 107.7

====

KIDNEY_R values, listed per item
species on record: Rattus norvegicus; test: Open TG-GATES - Regimen: Single; assay type: toxicity, organism-based, Sprague-Dawley; set-up: regimen Single, gender Male, age 6 weeks; details: in vivo, po, 0 mg/kg, 3 h, tissue Kidney, route gavage, dose level Control
Respond with the bare value in g.

1. Nc1nc(N)c2nc(-c3ccccc3)c(N)nc2n1
1
2. CC(C)C(=O)Nc1ccc([N+](=O)[O-])c(C(F)(F)F)c1 [FLUTAMIDE]
1
3. Oc1ncnc2[nH]ncc12 [ALLOPURINOL]
1
4. CCSCC[C@H](N)C(=O)O [ETHIONINE]
1
5. CC(=O)Oc1cc(C(C)C)c(OCCN(C)C)cc1C [MOXISYLYTE]
0.9

Now examine the next entry.
KIDNEY_R reading for CCC(C)(C)C(=O)O[C@H]1C[C@@H](C)C=C2C=C[C@H](C)[C@H](CC[C@@H]3C[C@@H](O)CC(=O)O3)[C@H]21 [SIMVASTATIN] : 1
